target.system: CSF-1R (Homo sapiens, UniProt P07333)
Sequence (P07333 20-972): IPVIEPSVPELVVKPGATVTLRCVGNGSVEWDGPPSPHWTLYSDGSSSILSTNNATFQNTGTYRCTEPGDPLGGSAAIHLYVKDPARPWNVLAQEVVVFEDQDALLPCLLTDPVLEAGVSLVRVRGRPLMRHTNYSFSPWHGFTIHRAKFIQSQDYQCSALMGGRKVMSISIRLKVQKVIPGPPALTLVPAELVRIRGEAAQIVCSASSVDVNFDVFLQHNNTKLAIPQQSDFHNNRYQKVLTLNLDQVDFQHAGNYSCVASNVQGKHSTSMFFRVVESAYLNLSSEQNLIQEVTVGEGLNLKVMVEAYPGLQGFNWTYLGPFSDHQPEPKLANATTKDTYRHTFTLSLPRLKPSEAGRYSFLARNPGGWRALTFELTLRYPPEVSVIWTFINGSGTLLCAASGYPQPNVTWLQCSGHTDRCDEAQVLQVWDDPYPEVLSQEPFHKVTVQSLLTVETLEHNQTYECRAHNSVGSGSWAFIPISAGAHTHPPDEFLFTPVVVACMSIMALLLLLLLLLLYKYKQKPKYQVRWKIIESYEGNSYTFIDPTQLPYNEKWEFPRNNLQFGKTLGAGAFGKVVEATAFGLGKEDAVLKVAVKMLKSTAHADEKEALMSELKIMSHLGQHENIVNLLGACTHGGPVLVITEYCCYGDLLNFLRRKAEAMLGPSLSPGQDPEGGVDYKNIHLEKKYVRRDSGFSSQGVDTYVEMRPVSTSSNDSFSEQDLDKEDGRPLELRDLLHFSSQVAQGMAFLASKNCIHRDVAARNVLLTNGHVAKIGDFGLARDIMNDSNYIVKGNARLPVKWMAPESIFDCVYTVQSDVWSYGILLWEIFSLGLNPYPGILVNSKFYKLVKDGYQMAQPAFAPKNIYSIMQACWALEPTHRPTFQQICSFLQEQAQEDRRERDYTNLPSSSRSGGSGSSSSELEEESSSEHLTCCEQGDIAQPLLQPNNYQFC
run.description: CSF-1R in vitro kinase activity assay (HTRF kinEASE TK)
Assay type: biochemical
condition.description: compound 10 nM; read-out: CSF-1R inhibition rate, 10 nM
Could you label it Satisfied if measured inhibition at 0.01 µM is 60% or higher, and Not satisfied otherwise?

• Cn1cc2ncc(O[C@H]3CCc4c(C(=O)Nc5cncc(Cl)c5)cccc43)cc2n1 [Compound 76ai] = Satisfied
• Cn1cc(-c2cncc(N[C@H]3CCc4c(C(=O)Nc5nn(C)c6ccccc56)cccc43)n2)cn1 [Compound 27g] = Satisfied
• CN1CCc2nc(NC(=O)c3cccc4c3CC[C@@H]4Nc3cncc(-c4cnn(C)c4)c3)sc2C1 [Compound 14ba] = Not satisfied
• Cn1cc2ncc(O[C@H]3CCc4c(C(=O)Nc5nn(C)c6cccc(F)c56)cccc43)cc2n1 [Compound 76aw] = Satisfied
• Cc1cccc(NC(=O)c2cccc3c2CC[C@@H]3Oc2cnc3cn(C)nc3c2)n1 [Compound 76bd] = Not satisfied
• Cn1cc(-c2cncc(N[C@H]3CCc4c(Nc5cc(C(C)(C)C)on5)cccc43)c2)cn1 = Not satisfied
• Cc1cc(NC(=O)c2cccc3c2CC[C@@H]3Oc2cncc(-c3cnn(C)c3)c2)cc(C)n1 [Compound 19k] = Not satisfied
• Cn1ncc2ncc(N[C@H]3CCc4c(Nc5cc(C(C)(C)C)on5)cccc43)nc21 = Not satisfied

* * *

Quick reference: inhibition at 0.01 µM of the listed items.
target.system: CSF-1R (Homo sapiens, UniProt P07333)
run.description: CSF-1R in vitro kinase activity assay (HTRF kinEASE TK)
Type: biochemical
condition.description: compound 10 nM; read-out: CSF-1R inhibition rate, 10 nM
assay.readout: inhibition at 0.01 µM (%)

- Cn1cc(-c2cncc(O[C@H]3CCc4c(C(=O)Nc5cccc(C6CC6)c5)cccc43)c2)cn1 [Compound 19b]: 71.9
- CN(c1cnc2cn(C)nc2c1)[C@H]1CCc2c(C(=O)Nc3nn(C)c4ccccc34)cccc21 [Compound 80l]: 24.3
- Cn1cc(-c2cnc(N)c(O[C@H]3CCc4c(C(=O)Nc5cccc(C6CC6)c5)cccc43)c2)cn1 [Compound 4]: 80.1
- Cc1cncc(NC(=O)c2cccc3c2CC[C@@H]3Nc2cncc(-c3cnn(C)c3)c2)c1 [Compound 14as]: 89.7

* * *

In this section, each of the compounds is paired with its reported inhibition at 0.01 µM.
target.system: UniProt:Q08345
Sequence (Q08345 19-913): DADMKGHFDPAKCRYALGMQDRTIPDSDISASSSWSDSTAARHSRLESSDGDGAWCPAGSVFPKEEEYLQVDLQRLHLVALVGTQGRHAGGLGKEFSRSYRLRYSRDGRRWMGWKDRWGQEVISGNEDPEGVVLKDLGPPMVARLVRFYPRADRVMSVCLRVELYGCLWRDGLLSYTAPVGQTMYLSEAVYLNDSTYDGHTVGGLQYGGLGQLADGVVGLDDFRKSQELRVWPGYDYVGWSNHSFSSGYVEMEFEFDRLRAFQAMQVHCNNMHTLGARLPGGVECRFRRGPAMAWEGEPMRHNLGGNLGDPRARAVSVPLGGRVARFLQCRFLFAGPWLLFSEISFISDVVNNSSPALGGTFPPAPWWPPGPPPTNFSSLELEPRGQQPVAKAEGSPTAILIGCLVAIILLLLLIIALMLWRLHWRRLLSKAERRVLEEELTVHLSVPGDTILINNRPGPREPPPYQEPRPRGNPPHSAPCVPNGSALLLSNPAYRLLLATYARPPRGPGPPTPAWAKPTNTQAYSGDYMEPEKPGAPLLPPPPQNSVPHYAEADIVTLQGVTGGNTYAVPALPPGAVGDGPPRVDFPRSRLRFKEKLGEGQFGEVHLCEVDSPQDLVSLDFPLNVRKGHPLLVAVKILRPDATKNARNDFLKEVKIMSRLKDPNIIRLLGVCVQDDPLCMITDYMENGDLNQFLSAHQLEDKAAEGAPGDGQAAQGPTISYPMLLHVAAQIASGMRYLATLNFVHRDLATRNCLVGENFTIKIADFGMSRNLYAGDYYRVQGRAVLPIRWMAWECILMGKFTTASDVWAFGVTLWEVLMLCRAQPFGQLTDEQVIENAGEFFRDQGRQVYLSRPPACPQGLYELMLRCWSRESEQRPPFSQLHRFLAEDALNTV
run.description: DDR1 in vitro kinase activity assay (LanthaScreen Eu-anti-GST antibody / Kinase Tracer 178)
Assay type: binding
condition.description: compound 10 nM; read-out: DDR1 inhibition rate, 10 nM
assay.readout: inhibition at 0.01 µM (%)

* CN1CCc2ccc(NC(=O)c3cccc4c3CC[C@@H]4Nc3cncc(-c4cnn(C)c4)c3)cc2C1 [Compound 14ap] | 75.8
* CN(c1cncc(-c2cnn(C)c2)c1)[C@H]1CCc2c(C(=O)Nc3cccc(C4CC4)c3)cccc21 [Compound 22a] | 32.4
* Cn1cc(-c2cncc(N[C@H]3CCc4c(C(=O)Nc5cncc(Cl)c5)cccc43)c2)cn1 [Compound 14aa] | 93.2
* CN(c1cnc2cn(C)nc2c1)[C@H]1CCc2c(C(=O)Nc3cncc(Cl)c3)cccc21 [Compound 80k] | 14.7
* Cc1cncc(NC(=O)c2cccc3c2CC[C@@H]3Oc2cncc(-c3cnn(C)c3)c2)c1 [Compound 19j] | 86.1
* CN(c1cncc(-c2cnn(C)c2)c1)[C@H]1CCc2c(C(=O)Nc3cncc(Cl)c3)cccc21 | 29.7
* Cc1cc(NC(=O)c2cccc3c2CC[C@@H]3Oc2cncc(-c3cnn(C)c3)c2)cc(C)n1 [Compound 19k] | 81.4

Cited source for all entries: patent US20260125359A1
